Taken from patent US20220281976A1.

molecular target: human CD33 (human, UniProt P20138 18-364); experiment: cell-based or functional assay
Sequence (P20138 18-364): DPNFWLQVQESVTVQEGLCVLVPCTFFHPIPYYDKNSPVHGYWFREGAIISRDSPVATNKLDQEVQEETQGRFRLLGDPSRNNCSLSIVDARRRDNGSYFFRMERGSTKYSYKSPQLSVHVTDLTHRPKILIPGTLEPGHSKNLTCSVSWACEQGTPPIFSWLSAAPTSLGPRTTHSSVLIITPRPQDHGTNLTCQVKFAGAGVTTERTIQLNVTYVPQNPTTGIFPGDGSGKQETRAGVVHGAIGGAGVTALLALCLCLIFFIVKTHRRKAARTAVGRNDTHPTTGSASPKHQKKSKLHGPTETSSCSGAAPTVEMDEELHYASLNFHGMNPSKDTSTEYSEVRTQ
Endpoint name: Percent CD33 Surface Expression, DC % CD33 (%)
Give bare numbers, in %.

Record excerpt, results attached:
Binder	Test value
C-38 (antibody, V domains shown, human IgG1) VH: QLQLQESGPGLVKPSETLSLTCTVSGGSISSSSYYWGWIRQPPGKGLEWIGSIYYSGSTYYNPSLKSRVTISVDTSKNQFSLKLSSVTAADTAVYYCAREATAAADHPGMDVWGQGTTVTVSS VL: DIQMTQSPSSLSASVGDRVTITCQASQDITNYLNWYQQKPGKAPKLLIYDASNLETGVPSRFSGSRSGTDFTFTISSLQPEDIATYYCQQYHDFPTFGGGTKVEIK	17.9
C-72 (antibody, V domains shown, human IgG1) VH: QVQLVESGGGVVQPGRSLRLSCAASGFTFSSYGMHWVRQAPGKGLEWVAVIWYDGSNKYYADSVKGRFTISRDNSKNTLYLQMNSLRAEDTAVYYCAKEGGTYSDDFDLWGGGTLVTVSS VL: DIQMTQSPSSVSASVGDRVTITCRASQGISSWLAWYQQKPGKAPKLLIYAASSLQSGVPSRFSGSGSGTDFTLTISSLQPEDFATYYCQQASSFPLTFGGGTKVEIK	43.4
C-90 (antibody, V domains shown, human IgG1) VH: EVQLVESGGGLVQPGGSLRLSCAASGFTFSSYWMSWVRQAPGKGLEWVANINQDGSEKYYVDSVKGRFTISRDNAKNSLYLQMNSLRAEDTAVYYCAREAGAVTGYRWFDPWGQGTLVTVSS VL: DIQMTQSPSSLSASVGDRVTITCRASQSISSYLNWYQQKPGKAPKLLIYGASSLQSGVPSRFSGSGSGTDFTLTISSLQPEDFATYYCQQQYLTPLTFGGGTKVEIK	18.5
C-88 (antibody, V domains shown, human IgG1) VH: QLQLQESGPGLVKPSETLSLTCTVSGGSISSSSYYWGWIRQPPGKGLEWIGSIYYSGSTYYNPSLKSRVTISVDTSKNQFSLKLSSVTAADTAVYYCARLPIYYDSSGYFDYHGMDVWGQGTTVTVSS VL: EIVLTQSPATLSLSPGERATLSCRASQSVSSYLAWYQQKPGQAPRLLIYDASNRATGIPARFSGSGSGTDFTLTISSLEPEDFAVYYCQQHANHPPTFGGGTKVEIK	18.6

Here's the next entry for you.
Given C-10 (antibody, V domains shown, human IgG1) VH: QVQLVQSGAEVKKPGSSVKVSCKASGGTFSNYAISWVRQAPGQGLEWMGGIIPIFGTANYAQKFQGRVTITADESTSTAYMELSSLRSEDTAVYYCARDTGTYVTGDGMDVWGQGTTVTVSS VL: EIVMTQSPATLSVSPGERATLSCRASQSVSSNLAWYQQKPGQAPRLLIYGASTRATGIPARFSGSGSGTEFTLTISSLQSEDFAVYYCQQYVNLPITFGGGTKVEIK , state its recorded Percent CD33 Surface Expression, DC % CD33.
19.5
